- assay_info: protein stability index of a GFP-peptide fusion (GPS, HEK-293T) (PSI 1-6); higher = more stable;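 further: 24-mer peptide tiles fused after GFP, lentivirally expressed, FACS-sorted into six equal bins by GFP/DsRed ratio, decoded by Illumina sequencing, PSI is the read-weighted mean bin number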
- conditions: treatment: MLN4924 1 uM, 8 h; c terminus: a fixed tail appended
outcome_measure: protein stability index
// no unit, no text: just the number

Completed entries (count: 6):
DFGDMHSYVRSRKRLREEEAARLF [TRIB1]    3.85
LKKIKEKDKENKFLCVLMSDWFNF [CLK3]    2.24
MRNLKASLENSLREVEARYALQME [KRT18]    3.25
AYQEVFKPENISLRNKLRELCVKL [SMG5]    2.17
EVVMNSQQTPVGTPKDKRVSNTPL [PALM]    3.61
SDSGLSLDSSHSPSSLSSSEGSSS [NFE2L1]    5.34

Need protein stability index of NRSDHGIFHSRTSLQKLSTKLSAQ [FCHSD1] , thanks.
3.67

Name the recorded protein stability index for PPVMPGMPPGLHHQRKYTQSFCGE [ZNF207] .
3.75

State the recorded protein stability index for this entry: QFALTNGDPLNCHSYLSGYISLLL [NR2F2]
2.28

# get_value(readout='protein stability index', item= DFLIRDSESSPSDFSVSLKASGKN [NCK2] )
4.4

Fill blank: measured protein stability index of the sequence MAAVLNAERLEVSVDGLTLSPDPE [ACBD3] is ____.
4.59

I have this sequence here, EEREKEAAEQAERSQSSIVPEEEQ [SMARCE1] , and I need its recorded protein stability index.
5.57

Report protein stability index for PDNWFCYPCIPNHELVWAKMKGFG [ZMYND11] please.
2.12

Requested field: protein stability index. Item: PSKTYPAFLEPDETFIVPDSFLVA [SPSB1]
2.45

Form field: reported protein stability index of KKEQRRLGIPKNPWLWSEQQVCQW [ETS2]
2.43

Which protein stability index is listed for FGTIISGIQLLIVEYKDIASIHWD [SLC35F2] ?
3

---

- assay_info: protein stability index of a GFP-peptide fusion (GPS, HEK-293T) (PSI 1-6); higher = more stable
- conditions: treatment: DMSO; c terminus: a fixed tail appended
The entries below come with measured protein stability index values attached.

Examples with answers:
EKPPSGTKEKKHQCDHCERCFYTR [PLAGL1]    3.87
ISTSGQAGTSSHGCWAWPLAGLSV [PXN]    2.33
FGLTYRDAENQKNWLDPAKEIKKQ [EPB41L3]    3.68
AVPEDLADRLVRVHGDPAVWWVSQ [FUT8]    2.61
TSPHFSTRHEGSFQVPVLCAVMNV [CD69]    2.81
KSIGSEPHEDHVFLVANFSQIETL [MATN2]    2.92
THKKCKEEVVSTLDAVQVLSGVSQ [FCHO1]    3.77
PLCNFNVIESFTELSRIVLMRHGM [RAB40C]    2.94

GET /values?readout=protein stability index&item= YDLDKIIELNGGQPPLTYKRFQTL [CRY1]
2.69

Look up protein stability index: VTLLVRGVCYSESQSSASQPRLSY [CLCN6]
2.83

What does the data say about its protein stability index? Entry: KLGLGIDEDEVAAEEPNAAVPDEI [HSP90AB1]
5.8

What does the record list as protein stability index for KMLGNPSRLPAKCPGKGAWSIPWK [FKBP8] ?
2.08

Reported protein stability index for AKGSLGTQIGFADLMGVLTKGVRE [FEM1A] : what is it?
2.49

Could you tell me which protein stability index is on file for PAPGKLLGPCVVGYGIYYFIYSTW [SAT2] ?
2.62

All values here come from the supplement of paper PMC10567573.
